# Tested on: E. coli
# assayDetails: Gram negative MIC protocol (OD600, LB, 24 h)
# condition: Escherichia coli, read-out: MIC WT E. coli LB Media, wild-type E. coli, LB media, 24 h, OD600
Structures can show the parent of a compound that is named as a salt.
quantityMeasured: MIC

Prompt line: Fill in the blank: the reported MIC of CC(CC1CCCCC1)NCc1ccccc1OCC(=O)NC(=O)NC1CCCC1 (stereo not drawn) is ____.
Response line: 91 µM

Prompt line: Fill in the blank: the reported MIC of c1ccc(-c2cccc3ccccc23)c(CNCCC2CCCCC2)c1 [B238, hydrochloride] is ____.
Response line: > 300 µM

Prompt line: Fill in the blank: the reported MIC of O=C1OC(COc2ccccc2CNCCC2=CCCCC2)CN1C1CC1 (stereo not drawn) is ____.
Response line: > 150 µM

Prompt line: Fill in the blank: the reported MIC of CC(CC1CCCCC1)NCc1ccccc1OCCOCCO (stereo not drawn) is ____.
Response line: 150 µM

Prompt line: Fill in the blank: the reported MIC of c1cc(CNCCC2CCCCC2)c2sccc2c1 is ____.
Response line: > 150 µM

Prompt line: Fill in the blank: the reported MIC of C[C@@H](Cc1ccccc1)NCc1ccccc1 is ____.
Response line: > 300 µM

---

# System: E. coli
# assayDetails: Gram negative MIC protocol (OD600, LB, 24 h)
# condition: Escherichia coli, read-out: MIC WT E. coli LB Media, wild-type E. coli, LB media, 24 h, OD600
For each entry below, report its MIC value.

Prompt line: Fill in the blank: the reported MIC of c1ccc(CNCCC2CCCNC2)cc1 (stereo not drawn) is ____.
Response line: > 300 µM

Prompt line: Fill in the blank: the reported MIC of CC(CC1CCCCC1)NCc1ccccc1OCC1CCOCC1 (stereo not drawn) is ____.
Response line: > 150 µM

Prompt line: Fill in the blank: the reported MIC of OB(O)c1ccccc1CNCCC1CCCCC1 is ____.
Response line: > 150 µM

Prompt line: Fill in the blank: the reported MIC of CC(CC1CCCCC1)NCc1ccccc1OCC1CN(C)C(=O)O1 (stereo not drawn) is ____.
Response line: 150 µM

Prompt line: Fill in the blank: the reported MIC of NC(=O)Nc1ccccc1CNCCC1CCCCC1 is ____.
Response line: > 150 µM

Prompt line: Fill in the blank: the reported MIC of Cc1noc(COc2ccccc2CNC(C)CC2CCCCC2)n1 (stereo not drawn) is ____.
Response line: > 150 µM

---

# Tested on: E. coli
# assayDetails: Gram negative MIC protocol (OD600, LB, 24 h)
# condition: Escherichia coli, read-out: MIC WT E. coli LB Media, wild-type E. coli, LB media, 24 h, OD600
Structures can show the parent of a compound that is named as a salt.
quantityMeasured: MIC

Prompt line: Fill in the blank: the reported MIC of COCCCOc1ccccc1CNC(C)CC1CCCCC1 (centres unmarked) [B312] is ____.
Response line: > 150 µM

Prompt line: Fill in the blank: the reported MIC of COCC(CC1CCCCC1)NCc1ccccc1 (centres unmarked) [B202, hydrochloride] is ____.
Response line: > 300 µM

Prompt line: Fill in the blank: the reported MIC of CC(CC1CCCCC1)NCc1ccccc1OCC(C)(C)O (centres unmarked) [B343] is ____.
Response line: 150 µM

Prompt line: Fill in the blank: the reported MIC of c1cc(CNCCC2CCCCC2)c2[nH]ccc2c1 [B352] is ____.
Response line: 91 µM

Prompt line: Fill in the blank: the reported MIC of CCNC(=O)COc1ccccc1CNC(C)CC1CCCCC1 (centres unmarked) [B239] is ____.
Response line: > 150 µM

Prompt line: Fill in the blank: the reported MIC of Cc1nc(COc2ccccc2CNC(C)CC2CCCCC2)no1 (centres unmarked) [B334] is ____.
Response line: > 150 µM

Prompt line: Fill in the blank: the reported MIC of NS(=O)(=O)c1ccccc1CNCCC1CCCCC1 [B345] is ____.
Response line: > 150 µM

Prompt line: Fill in the blank: the reported MIC of CC(CC1CCCCC1)NCc1ccccc1OCc1ccccc1I (centres unmarked) [B388] is ____.
Response line: 150 µM

Prompt line: Fill in the blank: the reported MIC of CC(CC1CCCCC1)NCc1ccccc1OCCOC(C)(C)C (centres unmarked) [B307] is ____.
Response line: > 150 µM

Prompt line: Fill in the blank: the reported MIC of COc1ccccc1CNCCC1CCCCC1 [B253, hydrochloride] is ____.
Response line: 150 µM

Prompt line: Fill in the blank: the reported MIC of COc1ccc(CNC(=O)COc2ccccc2CNC(C)CC2CCCCC2)cc1 (centres unmarked) [B303] is ____.
Response line: > 150 µM
